Molecular target: T1, TRCW5 antigen (CD3δε-Fc-Avi) (biotinylated (site not stated))
T1 construct: also called recombinant CD3
T1 sequence (chain, as listed by the source mutant limits assumed): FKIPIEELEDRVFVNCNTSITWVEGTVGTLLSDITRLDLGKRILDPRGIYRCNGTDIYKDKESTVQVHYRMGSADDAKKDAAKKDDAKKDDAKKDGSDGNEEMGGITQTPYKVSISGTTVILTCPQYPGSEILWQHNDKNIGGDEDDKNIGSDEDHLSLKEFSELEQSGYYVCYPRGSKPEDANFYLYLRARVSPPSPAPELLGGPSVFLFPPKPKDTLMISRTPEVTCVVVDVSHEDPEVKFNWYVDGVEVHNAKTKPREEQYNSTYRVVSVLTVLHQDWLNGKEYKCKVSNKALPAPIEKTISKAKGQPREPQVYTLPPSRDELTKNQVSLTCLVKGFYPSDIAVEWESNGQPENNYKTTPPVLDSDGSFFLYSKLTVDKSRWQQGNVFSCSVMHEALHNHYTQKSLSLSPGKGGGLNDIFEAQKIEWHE
Test: ELISA after heat
endpoint.label: % Retained 60° C.
Include the unit right after the number.

// below: answered binders
CD3B2083 (scFv) scFv: QVQLVQSGAEVKKPGSSVKVSCKASGYTFTRSTMHWVRQAPGQGLEWMGYINPSSAYTNYAQKFQGRVTLTADKSTSTAYMELSSLRSEDTAVYYCASPQVHYDYNGFPYWGQGTLVTVSSGGSEGKSSGSGSESKSTGGSEIVLTQSPATLSASPGERVTLSCSASSSVSYMNWYQQKPGQSPRRLIYDSSKLASGVPARFSGSGSGRDYTLTISSLEPEDFAVYYCQQWSRNPPTFGGGTKVEIK
84%
CD3B2037 (scFv) scFv: QVQLVQSGAEVKKPGSSVKVSCKASGYTFTRSTMHWVKQAPGQGLEWMGYINPSSAYTNYAQKFQGRVTLTADKSTSTAYMELSSLRSEDTAVYYCASPQVHYDYNGFPYWGQGTLVTVSSGGSEGKSSGSGSESKSTGGSEIVLTQSPATLSASPGERVTLSCSASSSVSYMNWYQQKPGTSPRRLIYDSSKLASGVPARFSGSGSGRDYTLTISSLEPEDFAVYYCQQWSRNPPTFGGGTKVEIK
103%

Now, please, on to the next binder.
Task: Specify measured % Retained 60° C. for CD3B2070 (scFv) scFv: QVQLVQSGAEVKKPGSSVKVSCKASGYTFTRSTMHWVRQAPGQGLEWMGYINPSSAYTNYNQKFQGRVTLTADKSTSTAYMELSSLRSEDTAVYYCASPQVHYDYNGFPYWGQGTLVTVSSGGSEGKSSGSGSESKSTGGSEIVLTQSPATLSASPGERVTLSCSASSSVSYMNWYQQKPGTSPRRLIYDSSKLASGVPARFSGSGSGRDYTLTISSLEPEDFAVYYCQQWSRNPPTFGGGTKVEIK .
Result: 82%
